# assay_notes: Cmax in ICR mouse at 25 mg/kg, po
# Assay type: ADME, organism-based
# Set-up: route oral, dose 25 mg/kg
# measurement_parameters: in vivo
readout_name: Cmax (ng/mL)
A number alone suffices; assume ng/mL.

IN: Query (molecule): `O=S(=O)(c1ccc(F)cc1)N(CCCN1CCC(c2noc3cc(F)ccc23)CC1)C1COC1` ; field requested: Cmax
OUT: 142

###

# target_under_test: 5-hydroxytryptamine receptor 2A (Homo sapiens)
# assay_notes: Antagonist activity at human 5HT2A receptor expressed in CHO-K1 cells measured after 15 mins by FLIPR assay
# Type: cell-based
# measurement_parameters: read-out: IC50
readout_name: IC50 (nM)
A number alone suffices; assume nM.

- structure_as_smiles: "CCCN(CCCN1CCN(c2ccccn2)CC1)C(=O)c1ccccc1"
  target_under_test: "5-hydroxytryptamine receptor 2A (Homo sapiens)"
  units_label: "nM"
  IC50: 7550
- structure_as_smiles: "O=C(c1ccccc1)N(CCCN1CCN(c2ccccn2)CC1)CC1CC1"
  target_under_test: "5-hydroxytryptamine receptor 2A (Homo sapiens)"
  units_label: "nM"
  IC50: 7720
- structure_as_smiles: "O=C(c1ccccc1)N(CCCN1CCN(c2cccc(Cl)c2Cl)CC1)CC1CC1"
  target_under_test: "5-hydroxytryptamine receptor 2A (Homo sapiens)"
  units_label: "nM"
  IC50: 768
- structure_as_smiles: "CCCN(CCCN1CCC(c2noc3cc(F)ccc23)CC1)C(=O)c1ccccc1"
  target_under_test: "5-hydroxytryptamine receptor 2A (Homo sapiens)"
  units_label: "nM"
  IC50: 73.1
- structure_as_smiles: "O=C(c1ccccc1)N(CCCN1CCC(c2noc3cc(F)ccc23)CC1)CC1CC1"
  target_under_test: "5-hydroxytryptamine receptor 2A (Homo sapiens)"
  units_label: "nM"
  IC50: 40.8

Shift focus to the following entry.
IN: What reported IC50 corresponds to `CCCN(CCCN1CCN(c2cccc(Cl)c2Cl)CC1)C(=O)c1ccccc1` on 5-hydroxytryptamine receptor 2A (Homo sapiens)?
OUT: 3250

###

# assay_notes: Brain to plasma partition coefficient, Kp of compound in ICR mouse at 1 mg/kg, iv measured after 1 hr
# Format: ADME, organism-based
readout_name: Kp at 1 h

IN: Query (compound): `O=S(=O)(c1ccc(F)cc1)N(CCCN1CCC(c2noc3cc(F)ccc23)CC1)C1COC1` ; field requested: Kp at 1 h
OUT: 1.72

###

# target_under_test: 5-hydroxytryptamine receptor 1A (Homo sapiens, UniProt P08908)
# assay_notes: Agonist activity at recombinant 5HT1A receptor (unknown origin) expressed in CHO cell membrane assessed as [35S]GTPgammaS binding by liquid scintillation counting method
# Assay type: functional, cell membranes
readout_name: pEC50
Interpret pEC50 as the negative base-10 log of the concentration measured in mol/L.

IN: Query (compound): `O=C(CN1CCN(CCCc2c[nH]c3ccc(F)cc23)CC1)N(c1ccccc1)C1CCCCC1` ; field requested: pEC50
OUT: 8.15

###

# target_under_test: 5-hydroxytryptamine receptor 2A (Homo sapiens, UniProt P28223)
# Sequence (P28223 whole entry): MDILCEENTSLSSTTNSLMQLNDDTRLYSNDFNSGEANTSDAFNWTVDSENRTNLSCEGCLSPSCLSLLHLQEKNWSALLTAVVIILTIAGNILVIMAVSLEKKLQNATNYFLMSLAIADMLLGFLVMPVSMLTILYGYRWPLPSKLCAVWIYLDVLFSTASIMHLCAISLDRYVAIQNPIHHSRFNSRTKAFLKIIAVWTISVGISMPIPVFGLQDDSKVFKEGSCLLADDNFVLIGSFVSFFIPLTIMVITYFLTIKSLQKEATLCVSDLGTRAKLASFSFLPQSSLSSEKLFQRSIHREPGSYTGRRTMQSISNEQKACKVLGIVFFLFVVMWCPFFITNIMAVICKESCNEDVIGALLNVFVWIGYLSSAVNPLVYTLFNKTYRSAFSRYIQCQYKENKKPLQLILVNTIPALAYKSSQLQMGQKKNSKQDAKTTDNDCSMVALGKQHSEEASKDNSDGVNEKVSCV
# assay_notes: Antagonist activity at human 5HT2A receptor expressed in CHO-K1 cells measured after 15 mins by FLIPR assay
readout_name: pKi
Interpret pKi as the negative base-10 log of the concentration measured in mol/L.

IN: Query (compound): `O=C(CN1CCN(CCCc2c[nH]c3ccc(F)cc23)CC1)N(c1ccccc1)C1CCCCC1` ; field requested: pKi
OUT: 6.68

###

# target_under_test: D(2) dopamine receptor (Homo sapiens)
# Sequence (P14416 whole entry): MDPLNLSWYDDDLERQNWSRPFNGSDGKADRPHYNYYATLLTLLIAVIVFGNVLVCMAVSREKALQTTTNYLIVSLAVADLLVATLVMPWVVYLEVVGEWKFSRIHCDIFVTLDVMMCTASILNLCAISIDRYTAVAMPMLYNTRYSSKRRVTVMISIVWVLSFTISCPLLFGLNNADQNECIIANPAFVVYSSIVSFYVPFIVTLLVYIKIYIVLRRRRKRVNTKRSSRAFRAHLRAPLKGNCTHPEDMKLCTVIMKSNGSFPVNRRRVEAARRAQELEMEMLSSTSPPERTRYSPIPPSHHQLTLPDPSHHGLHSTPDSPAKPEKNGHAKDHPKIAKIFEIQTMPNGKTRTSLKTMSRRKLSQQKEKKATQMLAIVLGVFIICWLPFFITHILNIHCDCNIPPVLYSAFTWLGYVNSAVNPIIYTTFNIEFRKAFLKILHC
# assay_notes: Antagonist activity at human D2 receptor expressed in HEK293 cells incubated for 60 mins by Eu-cAMP tracer based LANCE ultra cAMP assay
# Assay type: cell-based
# measurement_parameters: read-out: IC50
# Satisfied = IC50 below 200 nM (exclusive); Not satisfied = IC50 at/above 200 nM

- structure_as_smiles: "O=S(=O)(c1ccc(C(F)(F)F)cc1)N(CCCN1CCC(c2noc3cc(F)ccc23)CC1)C1COC1"
  qualitative_label: "Satisfied"
- structure_as_smiles: "O=S(=O)(c1ccccc1)N(CCCN1CCC(c2noc3cc(F)ccc23)CC1)C1COC1"
  qualitative_label: "Satisfied"
- structure_as_smiles: "O=C(c1ccccc1)N(CCCN1CCC(c2noc3cc(F)ccc23)CC1)C1COC1"
  qualitative_label: "Satisfied"

# input for lookup
IN: Regarding `CC(C)N(CCCN1CCC(c2noc3cc(F)ccc23)CC1)C(=O)c1ccccc1` , kindly confirm whether its IC50 is beneath 200 nM.
OUT: Satisfied

###

# assay_notes: Half life in ICR mouse at 25 mg/kg, po
# Type: ADME, organism-based
# measurement_parameters: in vivo
readout_name: half-life
Enter the number, and then the unit.

IN: Query (compound): `O=S(=O)(c1ccc(F)cc1)N(CCCN1CCC(c2noc3cc(F)ccc23)CC1)C1COC1` ; field requested: half-life
OUT: 2 h

###

# assay_notes: Half life in mouse liver microsomes measured after 60 mins in presence of NADPH by LC-MS/MS analysis
# Assay type: ADME, Microsome
readout_name: half-life

Some entries whose results are on file:
- structure_as_smiles: "O=C(c1ccccc1)N(CCCN1CCC(c2noc3cc(F)ccc23)CC1)CC1CC1"
  half-life: "6.9 min"
- structure_as_smiles: "CCCN(CCCN1CCC(c2noc3cc(F)ccc23)CC1)C(=O)c1ccccc1"
  half-life: "6.2 min"
- structure_as_smiles: "CC(C)N(CCCN1CCC(c2noc3cc(F)ccc23)CC1)C(=O)c1ccccc1"
  half-life: "31.5 min"

IN: Query (compound): `O=C(c1ccccc1)N(CCCN1CCC(c2noc3cc(F)ccc23)CC1)C1COC1` ; field requested: half-life
OUT: 173 min

###

# assay_notes: AUC (0 to 24 hrs) in ICR mouse at 25 mg/kg, po
# Type: ADME, organism-based
# Parameters: time < 24 hr, route oral, dose 25 mg/kg
# measurement_parameters: in vivo
readout_name: AUC(0-t) at 24 h (ng·h/mL)
A number alone suffices; assume ng·h/mL.

IN: Query (compound): `O=S(=O)(c1ccc(F)cc1)N(CCCN1CCC(c2noc3cc(F)ccc23)CC1)C1COC1` ; field requested: AUC(0-t) at 24 h
OUT: 259

###

# target_under_test: D(2) dopamine receptor (Homo sapiens)
# assay_notes: Antagonist activity at human D2 receptor expressed in HEK293 cells incubated for 60 mins by Eu-cAMP tracer based LANCE ultra cAMP assay
# Type: cell-based
# measurement_parameters: read-out: IC50
readout_name: IC50 (nM)
A number alone suffices; assume nM.

Some entries whose results are on file:
- structure_as_smiles: "CC(C)N(CCCN1CCN(c2cccc(Cl)c2Cl)CC1)C(=O)c1ccccc1"
  IC50 [nM]: 528
- structure_as_smiles: "CCCN(CCCN1CCC(c2noc3cc(F)ccc23)CC1)C(=O)c1ccccc1"
  IC50 [nM]: 18.5
- structure_as_smiles: "CCCN(CCCN1CCN(c2ccccn2)CC1)C(=O)c1ccccc1"
  IC50 [nM]: 6930

Shift focus to the following entry.
IN: Query (compound): `COc1ccccc1N1CCN(CCCN(C(=O)c2ccccc2)C2COC2)CC1` ; field requested: IC50
OUT: 3760

###

# target_under_test: 5-hydroxytryptamine receptor 1A (Homo sapiens)
# Sequence (P08908 whole entry): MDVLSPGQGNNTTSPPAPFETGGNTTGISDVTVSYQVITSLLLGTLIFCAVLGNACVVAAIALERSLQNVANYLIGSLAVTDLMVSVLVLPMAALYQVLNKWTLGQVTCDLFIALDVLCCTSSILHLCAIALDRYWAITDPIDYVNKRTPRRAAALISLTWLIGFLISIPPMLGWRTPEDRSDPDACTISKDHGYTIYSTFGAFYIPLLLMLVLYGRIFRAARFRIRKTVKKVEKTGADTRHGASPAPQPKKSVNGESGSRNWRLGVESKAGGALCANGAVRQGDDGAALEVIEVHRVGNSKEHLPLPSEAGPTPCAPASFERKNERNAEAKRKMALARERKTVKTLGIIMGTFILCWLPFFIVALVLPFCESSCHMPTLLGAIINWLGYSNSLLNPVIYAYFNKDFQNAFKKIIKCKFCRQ
# assay_notes: Displacement of [3H]5-HT from recombinant 5HT1A receptor (unknown origin) expressed in CHO cell membrane measured after 50 mins by microbeta scintillation counting method
readout_name: Ki (µM)
A number alone suffices; assume µM.

IN: Query (compound): `O=C(CN1CCN(CCCc2c[nH]c3ccc(F)cc23)CC1)N(c1ccccc1)C1CCCCC1` ; field requested: Ki
OUT: 0.0519

###

# assay_notes: Brain to plasma partition coefficient, Kp of compound in ICR mouse at 1 mg/kg, iv measured after 4 hrs
# Assay type: ADME, organism-based
readout_name: Kp at 4 h
Returns: the value as a bare number; no unit string appended.

IN: Query (compound): `O=S(=O)(c1ccc(F)cc1)N(CCCN1CCC(c2noc3cc(F)ccc23)CC1)C1COC1` ; field requested: Kp at 4 h
OUT: 4.03
